Target: Leucine aminopeptidase (Plasmodium falciparum 3D7)
Sequence (Q8IL11 whole entry): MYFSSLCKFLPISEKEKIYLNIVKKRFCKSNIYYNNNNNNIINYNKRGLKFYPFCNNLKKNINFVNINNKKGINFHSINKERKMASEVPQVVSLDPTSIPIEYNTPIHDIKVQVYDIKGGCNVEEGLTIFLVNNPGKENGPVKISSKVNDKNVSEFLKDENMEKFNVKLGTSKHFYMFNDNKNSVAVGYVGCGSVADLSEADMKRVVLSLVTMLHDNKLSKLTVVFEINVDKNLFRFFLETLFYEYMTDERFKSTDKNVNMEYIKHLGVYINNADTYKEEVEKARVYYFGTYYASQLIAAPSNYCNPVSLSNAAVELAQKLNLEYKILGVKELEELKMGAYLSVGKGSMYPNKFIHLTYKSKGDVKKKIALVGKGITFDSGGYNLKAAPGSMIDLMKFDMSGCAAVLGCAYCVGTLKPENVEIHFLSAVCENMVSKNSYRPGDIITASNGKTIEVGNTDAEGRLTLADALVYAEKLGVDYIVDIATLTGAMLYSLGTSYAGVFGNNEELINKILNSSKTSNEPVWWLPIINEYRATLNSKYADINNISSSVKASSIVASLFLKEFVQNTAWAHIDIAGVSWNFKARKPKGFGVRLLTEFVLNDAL
Assay: P. falciparum M17LAP inhibitors, primary screen, biochemical, fluorogenic H-Leu-NHMec substrate, 1536-well (AID 1619)
Type: functional
Calls of active or inactive are those of the source. How the calls were made is not given here.
Each entry below lists one item and its recorded IC50 value.

• Cn1c(C(=O)O)c(CC(=O)NCC2COc3ccccc3O2)c2ccccc21 (stereo not drawn) = 15.7 µM (active)
• CC(Sc1ccc2c(c1)OCCO2)C(=O)Nc1ncc(Cl)cc1Cl (stereo not drawn) = 3.8 µM (active)
• CC1SC(C)C(=O)N(CC(=O)NCc2ccc(F)cc2)C1=O (stereo not drawn) = 31.4 µM (active)
• CCOC(=O)Cc1csc(NC(=O)NC2(C(F)(F)F)Oc3cc(Cl)c(Cl)cc3O2)n1 = 27.7 µM (active)
• Cc1ccc(C(=O)Nc2ccc(Oc3ccc(C(=O)O)c(C(=O)O)c3)cc2)cc1C = 13.2 µM (active)

Qu. Hello, I am looking for reported IC50 with Leucine aminopeptidase (Plasmodium falciparum 3D7) for Nc1nc(SCc2nc(-c3ccccc3)no2)[nH]c(=O)c1-c1ccccc1 . Could you help?
Ans. 7.2 µM (active)

Qu. Hello, I am looking for reported IC50 with Leucine aminopeptidase (Plasmodium falciparum 3D7) for Cc1csc(SC(C)C(=O)Nc2ccc(Cl)cn2)n1 (stereo not drawn) . Could you help?
Ans. 6.63 µM (active)

Qu. Hello, I am looking for reported IC50 with Leucine aminopeptidase (Plasmodium falciparum 3D7) for CSC1=NSC2=NC(=O)/C(=C\c3cccs3)C(=N)N12 . Could you help?
Ans. 32.2 µM (active)
